Values from patent US20250154202A1

# measurement-target: NbALFA
# assay: SPR measurements of NbALFA binding (Biacore T200, multi cycle kinetics, 1:1 binding model)
# details: 25° C., HBS-EP+ buffer, biotinylated NbALFA captured
# Experimental: Affinity measurements were performed using a Biacore T200 (GE Healthcare, Biacore T200 control Software 3.2). […] A freshly docked Biotin CAPture chip was rehydrated overnight in the instrument (standby mode). […] The immobilization of the Nanobody was done for 180 s at 10 μL/min on FC2 followed by quenching of unbound streptavidin by 0.1 mM biocytin for 60 s and 30 μL/min on both flow cells. […] After each cycle, the surface was regenerated for 120 s with 10 μL/min using regeneration solution. […]
Bridge positions count the residues as written; N and C are the ends. Square brackets hold non-standard residues; d marks the D form. Peptide text beside a SMILES is read from it.

compound: CC(=O)N1CCC[C@H]1C(=O)N[C@@H](CO)C(=O)N[C@@H](CCCNC(=N)N)C(=O)N[C@@H](CC(C)C)C(=O)N[C@@H](CCC(=O)O)C(=O)N[C@H]1CCC(=O)NCCCC[C@H](C(=O)N[C@@H](CCCNC(=N)N)C(=O)N[C@@H](CC(C)C)C(=O)N[C@H](C(=O)N[C@@H](CCC(=O)O)C(N)=O)[C@@H](C)O)NC(=O)[C@H](CCCNC(=N)N)NC(=O)[C@H](CC(C)C)NC(=O)[C@H](CCC(=O)O)NC1=O [SD15808] (Ac-PSRLEEELR[dK]RLTE-NH2; lactam 6-10)
kd / s⁻¹: 0.000513
